Reported zone of inhibition at 500 µg/mL values for the following compounds.
- System: Pseudomonas aeruginosa PA01
- protocolText: Disc diffusion (Kirby-Bauer), zone of inhibition
- Assay type: cell-based
- experimentalContext: 500 μg/mL, '/' = no zone
Write the numeric value and follow it with the unit.

IN: Look up zone of inhibition at 500 µg/mL for this compound: [C-]#[N+]C=Cc1ccc(NC(=O)OC(C)(C)C)cc1
OUT: 14 mm

IN: Dear colleague, I am looking for the recorded zone of inhibition at 500 µg/mL of the following compound: [C-]#[N+]/C=C/c1ccccc1/C=C/c1ccccc1
OUT: 26 mm

IN: What zone of inhibition at 500 µg/mL value was documented for this compound, [C-]#[N+]/C=C/c1ccc(NC(C)=O)cc1/C=C/c1ccncc1 ?
OUT: 26 mm

IN: What value of zone of inhibition at 500 µg/mL has been recorded for this entry: [C-]#[N+]C=Cc1ccc(O)c(O)c1
OUT: 18 mm

IN: Data request, read-out zone of inhibition at 500 µg/mL, for [C-]#[N+]C=Cc1cn(CC)c2ccccc12
OUT: 20 mm

###

Parameter zone of inhibition at 500 µg/mL: see the listing below.
- Tested on: various Staphylococcus aureus strains
- protocolText: Disc diffusion, Staphylococcus aureus strain study
- Assay type: cell-based
- experimentalContext: Staphylococcus aureus, strain S295_1_2; 500 μg/mL
Your answer should be a plain number; it is taken to be in mm.

[C-]#[N+]C=Cc1ccc(O)cc1 [Compound 2, 4-(2-Isocyanovinyl)phenol] = 14
[C-]#[N+]C=Cc1cc(Br)ccc1O [Compound 13] = 20
[C-]#[N+]/C=C/c1ccc(O)cc1/C=C/c1ccccc1 [Compound 36] = 30

IN: // query zone of inhibition at 500 µg/mL value for entry [C-]#[N+]C=Cc1ccc(O)c(Br)c1 [Compound 14]
OUT: 14

IN: // returns reported zone of inhibition at 500 µg/mL for input [C-]#[N+]/C=C/c1ccc(NC(C)=O)cc1/C=C/c1ccccc1 [Compound 41]
OUT: 25

###

Property: zone of inhibition at 500 µg/mL; scope: individual compounds
- System: various Staphylococcus aureus strains
- protocolText: Disc diffusion, Staphylococcus aureus strain study
- Format: cell-based
- experimentalContext: Staphylococcus aureus, strain ASARM 80; 500 μg/mL
The reply should be a number in mm, with the unit left off.

Below are worked cases with known answers.
[C-]#[N+]C=Cc1ccc(O)c(Br)c1 [Compound 14] = 25
[C-]#[N+]/C=C/c1ccc(O)cc1/C=C/c1ccccc1 [Compound 36] = 30
[C-]#[N+]C=Cc1cc(Br)ccc1O [Compound 13] = 18
[C-]#[N+]/C=C/c1ccc(NC(C)=O)cc1/C=C/c1ccccc1 [Compound 41] = 30

IN: Which zone of inhibition at 500 µg/mL is reported for this compound? [C-]#[N+]C=Cc1ccc(O)cc1 [Compound 2, 4-(2-Isocyanovinyl)phenol]
OUT: 13

###

- System: C. tropicalis ATCC 450
- protocolText: Anti-fungal MIC (CO-ADD)
- Format: cell-based
- experimentalContext: Candida tropicalis, ATCC450, read-out: MIC
reportedEndpoint: MIC

// known answers, use as guide
[C-]#[N+]/C=C/c1ccc(NC(C)=O)cc1/C=C/c1ccccc1 = 1 to 2 µg/mL
[C-]#[N+]C=Cc1ccc(O)c(Br)c1 = > 32 µg/mL
[C-]#[N+]C=Cc1ccc(O)cc1Br = 4 µg/mL
[C-]#[N+]C=Cc1cc(Br)ccc1O = 4 µg/mL

IN: Name the recorded MIC for [C-]#[N+]/C=C/c1ccccc1/C=C/c1ccccc1 .
OUT: 2 µg/mL

IN: For [C-]#[N+]/C=C/c1ccc(O)cc1/C=C/c1ccccc1 , what is its reported MIC?
OUT: 2 µg/mL

Cited source: patent US20240246905A1
